test-target: native human MET on living cells (human, UniProt P08581 25-1390)
Sequence (P08581 25-1390): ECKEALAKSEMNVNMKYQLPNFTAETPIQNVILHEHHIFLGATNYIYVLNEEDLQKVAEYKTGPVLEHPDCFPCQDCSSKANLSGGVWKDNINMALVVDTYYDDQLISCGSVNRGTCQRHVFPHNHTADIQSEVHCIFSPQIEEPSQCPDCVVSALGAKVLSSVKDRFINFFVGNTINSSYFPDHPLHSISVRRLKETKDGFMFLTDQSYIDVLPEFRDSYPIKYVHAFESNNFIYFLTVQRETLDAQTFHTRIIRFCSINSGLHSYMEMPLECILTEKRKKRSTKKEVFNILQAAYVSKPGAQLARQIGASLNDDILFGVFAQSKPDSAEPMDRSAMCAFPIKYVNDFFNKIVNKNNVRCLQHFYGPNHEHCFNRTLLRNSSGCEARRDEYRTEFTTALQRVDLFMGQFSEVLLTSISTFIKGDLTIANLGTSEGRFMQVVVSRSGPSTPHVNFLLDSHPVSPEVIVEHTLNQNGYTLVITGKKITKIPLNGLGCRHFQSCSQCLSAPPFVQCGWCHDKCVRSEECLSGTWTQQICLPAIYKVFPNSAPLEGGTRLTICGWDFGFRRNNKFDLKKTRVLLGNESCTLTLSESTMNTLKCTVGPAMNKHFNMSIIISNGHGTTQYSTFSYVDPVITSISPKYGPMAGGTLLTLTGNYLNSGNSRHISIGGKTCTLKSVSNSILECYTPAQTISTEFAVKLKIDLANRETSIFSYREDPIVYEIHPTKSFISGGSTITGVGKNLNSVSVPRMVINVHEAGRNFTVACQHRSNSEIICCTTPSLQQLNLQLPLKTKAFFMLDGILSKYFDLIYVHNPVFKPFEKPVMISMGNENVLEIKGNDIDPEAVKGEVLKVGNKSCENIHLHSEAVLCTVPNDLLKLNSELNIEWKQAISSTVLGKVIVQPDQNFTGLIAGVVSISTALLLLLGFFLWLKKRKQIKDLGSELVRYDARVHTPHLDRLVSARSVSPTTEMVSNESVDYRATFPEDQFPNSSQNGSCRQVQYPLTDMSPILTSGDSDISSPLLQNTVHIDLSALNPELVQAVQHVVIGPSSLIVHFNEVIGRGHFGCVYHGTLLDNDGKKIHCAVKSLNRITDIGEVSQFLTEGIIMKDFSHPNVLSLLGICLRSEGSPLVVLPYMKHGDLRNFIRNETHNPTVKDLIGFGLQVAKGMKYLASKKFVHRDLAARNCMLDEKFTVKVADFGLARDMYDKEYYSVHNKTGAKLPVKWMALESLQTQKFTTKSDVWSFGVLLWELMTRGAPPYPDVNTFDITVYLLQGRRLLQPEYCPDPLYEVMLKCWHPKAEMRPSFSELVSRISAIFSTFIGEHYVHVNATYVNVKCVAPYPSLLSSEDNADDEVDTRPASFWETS
protocol-notes: cell-based or functional assay
Catalogue of binders with associated phospho-MET ELISA EMAX (% HGF activity), A549 cells
Numbers only here, please. The scale is %.

• 71G3 chimeric llama-human IgG1 mAb (antibody, V domains shown, llama VH on human IgG1 CH1-CH2-CH3, llama VL on human lambda CL) VH: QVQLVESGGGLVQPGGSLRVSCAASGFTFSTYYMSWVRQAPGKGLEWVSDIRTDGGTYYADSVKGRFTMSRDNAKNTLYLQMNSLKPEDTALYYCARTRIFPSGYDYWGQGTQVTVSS VL: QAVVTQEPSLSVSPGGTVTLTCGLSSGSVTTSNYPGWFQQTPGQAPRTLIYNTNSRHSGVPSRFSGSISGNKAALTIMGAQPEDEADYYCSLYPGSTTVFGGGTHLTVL = 95.7

Q) Give a short answer stating reported phospho-MET ELISA EMAX (% HGF activity), A549 cells for 72F8 chimeric llama-human IgG1 mAb (antibody, V domains shown, llama VH on human IgG1 CH1-CH2-CH3, llama VL on human lambda CL) VH: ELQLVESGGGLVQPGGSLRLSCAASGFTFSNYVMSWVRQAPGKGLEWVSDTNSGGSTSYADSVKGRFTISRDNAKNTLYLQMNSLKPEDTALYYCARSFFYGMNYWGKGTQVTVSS VL: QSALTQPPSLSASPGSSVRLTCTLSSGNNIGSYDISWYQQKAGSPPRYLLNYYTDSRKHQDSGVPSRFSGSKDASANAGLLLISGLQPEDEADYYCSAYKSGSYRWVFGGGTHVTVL .
A) 69.7

Q) Give a short answer stating reported phospho-MET ELISA EMAX (% HGF activity), A549 cells for 71D6 chimeric llama-human IgG1 mAb (antibody, V domains shown, llama VH on human IgG1 CH1-CH2-CH3, llama VL on human lambda CL) VH: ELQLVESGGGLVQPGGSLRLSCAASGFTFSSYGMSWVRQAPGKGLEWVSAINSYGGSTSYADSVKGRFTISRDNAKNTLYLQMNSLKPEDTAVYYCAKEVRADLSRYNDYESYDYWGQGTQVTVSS VL: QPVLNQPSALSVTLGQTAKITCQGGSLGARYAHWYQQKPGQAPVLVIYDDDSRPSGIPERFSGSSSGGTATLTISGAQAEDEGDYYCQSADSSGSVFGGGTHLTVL .
A) 102

Q) Give a short answer stating reported phospho-MET ELISA EMAX (% HGF activity), A549 cells for 71D4 chimeric llama-human IgG1 mAb (antibody, V domains shown, llama VH on human IgG1 CH1-CH2-CH3, llama VL on human lambda CL) VH: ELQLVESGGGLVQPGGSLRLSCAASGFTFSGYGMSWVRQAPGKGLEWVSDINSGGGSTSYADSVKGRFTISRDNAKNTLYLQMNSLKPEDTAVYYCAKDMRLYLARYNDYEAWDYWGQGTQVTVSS VL: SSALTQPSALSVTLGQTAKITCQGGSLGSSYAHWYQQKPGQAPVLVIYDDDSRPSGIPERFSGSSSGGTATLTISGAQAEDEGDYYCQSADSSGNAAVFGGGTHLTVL .
A) 84.6

Q) Give a short answer stating reported phospho-MET ELISA EMAX (% HGF activity), A549 cells for 71A3 chimeric llama-human IgG1 mAb (antibody, V domains shown, llama VH on human IgG1 CH1-CH2-CH3, llama VL on human lambda CL) VH: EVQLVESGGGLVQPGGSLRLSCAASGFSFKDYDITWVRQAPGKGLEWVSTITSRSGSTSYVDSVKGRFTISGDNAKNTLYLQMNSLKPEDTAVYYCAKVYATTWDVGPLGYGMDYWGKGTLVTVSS VL: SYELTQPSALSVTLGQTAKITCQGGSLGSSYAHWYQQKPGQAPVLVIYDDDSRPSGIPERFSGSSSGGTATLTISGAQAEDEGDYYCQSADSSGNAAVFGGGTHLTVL .
A) 86.6

Q) Give a short answer stating reported phospho-MET ELISA EMAX (% HGF activity), A549 cells for 71G2 chimeric llama-human IgG1 mAb (antibody, V domains shown, llama VH on human IgG1 CH1-CH2-CH3, llama VL on human lambda CL) VH: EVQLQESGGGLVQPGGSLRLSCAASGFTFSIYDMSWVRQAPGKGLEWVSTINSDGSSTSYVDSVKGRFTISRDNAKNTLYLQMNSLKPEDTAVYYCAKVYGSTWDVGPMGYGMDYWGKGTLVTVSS VL: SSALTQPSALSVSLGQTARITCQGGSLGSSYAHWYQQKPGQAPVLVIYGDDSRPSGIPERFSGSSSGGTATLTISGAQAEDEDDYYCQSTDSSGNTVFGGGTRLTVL .
A) 101

Reference source for all entries: patent US20210087281A1
